The reported measurements were obtained from PubChem BioAssay AID798.

test-target: Coagulation factor XI (Homo sapiens)
test-name: factor XIa enzyme inhibition, large library – biochemical, 1536-well, primary screen (AID 798);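 further: fluorescence of freed AMC excited at 355 nm; 0% = enzyme without compound and 100% = no enzyme blank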
condition-description: purified FXIa, Boc-Glu-Ala-Arg-AMC fluorogenic substrate; at 5 µM; stronger effect = higher value
The campaign covered roughly 220,000 compounds. About 300 (0.14%) were called active. This excerpt belongs to a sample that is enriched for actives.

# compound, result-unit, inhibition
measured = [
    ("Cc1cccc(Cn2cnc3c(N)c(C)c(C)cc32)c1", "%", -1.66),
    ("COc1ccccc1-c1nnc(NC(=O)c2ccc3ncsc3c2)o1", "%", 10.2),
    ("Cc1cccc(NC(=O)c2ccc3ccccc3n2)n1", "%", 0.23),
    ("CN(C)C(=S)Nc1ccc(Br)cc1Cl", "%", 1.74),
    ("NC(=O)Cn1nc([N+](=O)[O-])nc1Oc1ccc(Br)cc1", "%", 0.41),
    ("CCC1SC(CC)C(=O)N(CC(=O)NC2CCCCC2)C1=O (centres undefined)", "%", 26),
    ("COC(=O)c1sccc1NN1C(=O)c2ccccc2C1=O", "%", 0.85),
    ("Cc1ccc(OC(=O)CCC(=O)Nc2ccc(Br)cc2)cc1", "%", -1.21),
    ("C#CCNc1ccc(C(=O)OCC)cc1", "%", 0.47),
    ("COc1ccc(C(=O)N/N=c2\\oc3ccccc3cc2C(N)=O)cc1", "%", 8.97),
    ("Cc1nc(N)sc1N=Nc1c(C)n(C)n(-c2ccccc2)c1=O", "%", 1.75),
    ("Cc1cc(NC(=O)c2cccc(N3C(=O)CCC3=O)c2)no1", "%", 7.9),
    ("CC(C)(C)NC(=O)CSC(=Nc1ccccc1F)NC#N", "%", 7.8),
    ("Cc1cccc(N2CCN(Cc3nc(C4CC4)no3)CC2)n1", "%", -4.4),
    ("COc1ccc(C(=O)NNC(=O)c2cc(C)[nH]n2)cc1", "%", 1.62),
    ("O=C(CNCc1ccc(F)cc1)Nc1ccccc1-c1ccccc1", "%", 5.85),
    ("O=C(Cc1ccc(F)cc1)N1CCN=C1SCc1cccc([N+](=O)[O-])c1", "%", -3.4),
    ("O=C(CSc1nnnn1-c1ccc(O)cc1)N1N=C(c2ccc3ccccc3c2)CC1c1ccccc1 (centres undefined)", "%", 8.65),
    ("C[N+]1(CC(O)COc2ccccc2)CCN(C(=O)c2ccc([N+](=O)[O-])cc2)CC1 (centres undefined)", "%", 0.51),
]
